- assayed_system: T1, recombinant human CD123 protein (CD123)-His Acrobio #ILA-H52H6 (human, UniProt P26951 19-305)
- T1 construct: Bought protein; also called hu IL-3R alpha (CD123)-His; not shown: His tag
- T1 sequence (looked up): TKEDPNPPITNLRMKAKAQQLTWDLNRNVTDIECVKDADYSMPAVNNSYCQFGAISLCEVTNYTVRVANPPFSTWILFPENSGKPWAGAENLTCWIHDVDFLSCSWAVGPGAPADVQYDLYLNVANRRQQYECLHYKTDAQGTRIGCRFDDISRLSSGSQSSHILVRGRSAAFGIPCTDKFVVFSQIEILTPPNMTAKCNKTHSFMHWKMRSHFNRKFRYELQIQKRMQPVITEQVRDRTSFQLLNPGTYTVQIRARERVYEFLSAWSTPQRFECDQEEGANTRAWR
- assay_name: BLI (Octet), CD123-His on anti-penta-His sensors, IgG in solution, 1:1 global fit
Please respond with reported pKd for every item in the list.
Answers are plain numbers, as −log10 of the molar value.

32716 IgG (antibody, V domains shown, Parental mouse variable domains cloned into human IgG format; detected with anti-human kappa; also called original mouse antibody) VH: QIQLVQSGPELKKPGETVKISCKASGYIFTNYGMNWVKQAPGKSFKWMGWINTYTGESTYSADFKGRFAFSLETSASTAYLHINDLKNEDTATYFCARSGGYDPMDYWGQGTSVTVSS VL: DIVLTQSPASLAVSLGQRATISCRASESVDNYGNTFMHWYQQKPGQPPKLLIYRASNLESGIPARFSGSGSRTDFTLTINPVEADDVATYYCQQSNEDPPTFGAGTKLELK :: 9.36
h32716-4-2 IgG (antibody, V domains shown, Human IgG format) VH: QVQLVQSGPELKKPGASVKVSCKASGYIFTNYGMNWVRQAPGQGLEWMGWINTYTGESTYSADFKGRFVFSLDTSVSTAYLQISSLKAEDTAVYYCARSGGYDPMDYWGQGTLVTVSS VL: DIQMTQSPSSLSASVGDRVTITCRASESVDNYGNTFMHWYQQKPGKAPKLLIYRASNLESGVPSRFSGSGSGTDFTFTISSLQPEDIATYYCQQSNEDPPTFGQGTKVEIK :: 9.22
h32716-3-1 IgG (antibody, V domains shown, Human IgG format) VH: QVQLVQSGAEVKKPGSSVKVSCKASGYIFTNYGMNWVKQAPGQGFKWMGWINTYTGESTYSADFKGRFTFTLDESTSTAYMELSSLRSEDTAVYYCARSGGYDPMDYWGQGTLVTVSS VL: DIVMTQSPDSLAVSLGERATINCRASESVDNYGNTFMHWYQQKPGQPPKLLIYRASNLESGVPDRFSGSGSGTDFTLTISSLQAEDVAVYYCQQSNEDPPTFGQGTRLEIK :: 9.60
h32716-2-1 IgG (antibody, V domains shown, Human IgG format) VH: QVQLVQSGAEVKKPGSSVKVSCKASGYIFTNYGMNWVKQAPGQGLEWMGWINTYTGESTYSADFKGRFTFTLDESTSTAYMELSSLRSEDTAVYYCARSGGYDPMDYWGQGTLVTVSS VL: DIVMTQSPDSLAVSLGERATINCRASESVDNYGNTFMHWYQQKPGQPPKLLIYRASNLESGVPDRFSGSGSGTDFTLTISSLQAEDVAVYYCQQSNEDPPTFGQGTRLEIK :: 9.35
h32716-1-1 IgG (antibody, V domains shown, Human IgG format) VH: QVQLVQSGAEVKKPGSSVKVSCKASGYIFTNYGMNWVRQAPGQGLEWMGWINTYTGESTYSADFKGRVTITADESTSTAYMELSSLRSEDTAVYYCARSGGYDPMDYWGQGTLVTVSS VL: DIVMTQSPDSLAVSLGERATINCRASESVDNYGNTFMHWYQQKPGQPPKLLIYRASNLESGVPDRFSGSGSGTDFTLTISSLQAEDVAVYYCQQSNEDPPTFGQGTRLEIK :: 9.44

For each of the binders below, note its pKd.
1. h32716-5-2 IgG (antibody, V domains shown, Human IgG format) VH: QVQLVQSGPELKKPGASVKVSCKASGYIFTNYGMNWVKQAPGQGLEWMGWINTYTGESTYSADFKGRFVFSLDTSVSTAYLQISSLKAEDTAVYYCARSGGYDPMDYWGQGTLVTVSS VL: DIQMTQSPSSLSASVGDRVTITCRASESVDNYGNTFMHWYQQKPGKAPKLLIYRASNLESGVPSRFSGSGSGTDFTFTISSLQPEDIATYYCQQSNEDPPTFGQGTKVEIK
2. h32716-6-2 IgG (antibody, V domains shown, Human IgG format) VH: QVQLVQSGPELKKPGASVKVSCKASGYIFTNYGMNWVKQAPGQGFKWMGWINTYTGESTYSADFKGRFVFSLDTSVSTAYLQISSLKAEDTAVYYCARSGGYDPMDYWGQGTLVTVSS VL: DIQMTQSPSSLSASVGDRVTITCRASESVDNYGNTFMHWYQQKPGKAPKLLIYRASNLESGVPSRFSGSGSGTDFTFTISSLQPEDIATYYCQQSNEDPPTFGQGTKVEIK

1. 9.15
2. 9.48
